# System: DU-145
# Procedure Summary: Growth inhibition of human DU145 cells after 96 hrs by trypan blue exclusion assay
# Assay type: functional
# Measurement Context: DU-145, 96 h
Observed Property: GI50 (µM)

[Q] // Input: COc1ccc(/C=C(\C(=O)c2ccc(Cl)cc2)S(=O)(=O)Cc2ccccc2Cl)cc1 . Output its GI50 only.
[A] 50

A. CCOc1ccc(/C=C(/Sc2ccccc2Cl)C(=O)c2ccc(Cl)cc2)cc1OC
B. Cc1ccc(S(=O)(=O)/C(=C/c2cc(C)ccc2C)C(=O)c2ccc(Cl)cc2)cc1
[Q] Identify the entry with the smaller GI50: A or B . Answer = label.
[A] B

====

# Test system: DU-145
# Procedure Summary: Growth inhibition of human DU145 cells after 96 hrs by trypan blue exclusion assay
# Format: functional
# Measurement Context: DU-145, 96 h
Observed Property: GI50 (µM)

Here are 5 compounds together with their reported answers.
[Q] Return GI50 for the following compound: COc1ccccc1/C=C(/Sc1ccc(Br)cc1)C(=O)c1ccc(Cl)cc1
[A] 10

[Q] Identify the reported GI50 for the following entry. O=C(/C(=C\c1ccc(Br)cc1)SCc1ccc(Cl)cc1)c1ccc(Br)cc1
[A] 1

[Q] Identify measured GI50 associated with Nc1ccc(/C=C(/SCc2ccc(F)cc2)C(=O)c2ccc(C(=O)O)cc2)cc1[N+](=O)[O-]
[A] 10

[Q] Output GI50 of Cc1ccc(S(=O)(=O)/C(=C/c2cc(C)cc(C)c2)C(=O)c2ccc(Cl)cc2)cc1
[A] 1

[Q] Specify reported GI50 for the compound shown: COc1cc(OC)c(/C=C(/SCc2ccc(Cl)cc2Cl)C(=O)c2ccc(Cl)cc2)c(OC)c1
[A] 1

P. Cc1ccc(S/C(=C/c2ccc(O)c([N+](=O)[O-])c2)C(=O)c2ccc(Cl)cc2)cc1
Q. O=C(/C(=C\c1ccc(O)c([N+](=O)[O-])c1)Sc1ccc(Br)cc1)c1c(F)c(F)c(F)c(F)c1F
R. Cc1ccsc1/C=C(/SCc1ccc(Cl)cc1)C(=O)c1ccc(Cl)cc1
[Q] Your job: order these 3 records by GI50, ascending. # format: label list in the order the request specifies
[A] Q, P, R

====

# Test system: DU-145
# Procedure Summary: Growth inhibition of human DU145 cells after 96 hrs by trypan blue exclusion assay
# Assay type: functional
# Measurement Context: DU-145, 96 h
Observed Property: GI50 (µM)

# annotated cases, reported GI50 shown
[Q] Report GI50, nothing else, for this compound: O=C(C(=Cc1ccc(I)cc1)S(=O)(=O)Cc1ccc(I)cc1)c1ccc(I)cc1
[A] 50

[Q] // Input: O=C(/C(=C\c1ccc([N+](=O)[O-])c(O)c1)SCc1ccc(Br)cc1)c1cc(Cl)ccc1O . Output its GI50 only.
[A] 10

[Q] Using known records, supply GI50 for Cc1ccc(S/C(=C/c2ccc(Cl)cc2)C(=O)c2ccc(Cl)cc2)cc1
[A] 10

[Q] Hello, please tell me recorded GI50 for this one: Cc1ccc(/C=C(\C(=O)c2ccc(Br)cc2)S(=O)(=O)Cc2ccc(F)cc2)s1
[A] 1

[Q] Give the reported GI50 for this compound. Cc1ccc(CS/C(=C/c2cc(Cl)cc(Cl)c2)C(=O)c2ccc(Cl)cc2)cc1
[A] 10

[Q] Provide one value: measured GI50 of O=C(/C(=C\c1c(O)cc(O)cc1O)S(=O)(=O)c1ccccc1Br)c1ccc(Cl)cc1
[A] 50

1. O=C(O)c1ccc(C(=O)/C(=C\c2ccc(F)c([N+](=O)[O-])c2)SCc2ccc(Cl)cc2)cc1
2. Cc1ccc(CS/C(=C/c2sccc2C)C(=O)c2ccc(Cl)cc2)cc1
[Q] Name the one with the greater GI50 value, either 1 or 2 as given. The response must carry the label of the picked entry.
[A] 1
